Test system: Abutilon theophrasti
method-summary: Post-emergence herbicidal action against ABUTH
Type: in vivo
recorded-conditions: 80 g a.i./ha, visual rating about 3 weeks after treatment
Each entry below carries its recorded Herbicidal action against [%] ABUTH.
Kindly answer with a numeric value in %, unit omitted.

Consider the worked cases shown below.
CSCCOC(=O)C1C=CC(NC(=O)C2(C)CC(c3cccc(F)c3)=NO2)C1 (stereo not drawn) | 80
CSCCOC(=O)C1C=CC(NC(=O)C2(C(F)(F)F)CC(c3cc(F)cc(C#N)c3)=NO2)C1 (mixture of isomers) | 90

Could you tell me which Herbicidal action against [%] ABUTH is on file for CSCCOC(=O)C1C=CC(NC(=O)C2(C)CC(c3cc(F)cc(F)c3)=NO2)C1 (stereo not drawn) ?
80

Cool, now C=CC1(C(=O)NC2CC=C(C(=O)OCCSC)C2)CC(c2cc(F)cc(F)c2)=NO1 (stereo not drawn)
80

Cool, now CSCCOC(=O)[C@@H]1C=C[C@H](NC(=O)C2(C(F)(F)F)CC(c3cc(F)cc(Cl)c3)=NO2)C1 (stereo partly drawn)
80

Can you check CSCCOC(=O)C1C=CC(NC(=O)C2(CCl)CC(c3cc(F)cc(F)c3)=NO2)C1 (stereo not drawn) next?
80

###

Herbicidal action against [%] POLCO values for the compounds below.
Tested on: Polygonum convolvulus
method-summary: Post-emergence herbicidal action against POLCO
Assay type: in vivo
recorded-conditions: 20 g a.i./ha
Kindly answer with a numeric value in %, unit omitted.

Check out these entries, answers already filled in.
CC1(C(=O)NC2C=CC(C(=O)OCCSc3ccccc3)C2)CC(c2cc(F)cc(F)c2)=NO1 (centres unmarked) | 80
C=CC1(C(=O)NC2C=CC(C(=O)OCCSC)C2)CC(c2cccc(F)c2)=NO1 (centres unmarked) | 90
CSCCOC(=O)C1C=CC(NC(=O)C2(CCl)CC(c3cc(F)cc(C#N)c3)=NO2)C1 (centres unmarked) | 80
CC(C)SCCOC(=O)C1C=CC(NC(=O)C2(C)CC(c3cc(F)cc(F)c3)=NO2)C1 (centres unmarked) | 90
CC1(C(=O)NC2C=CC(C(=O)OCCSCc3ccc(F)cc3)C2)CC(c2cc(F)cc(F)c2)=NO1 (centres unmarked) | 80
CSCCOC(=O)C1C=CC(NC(=O)C2(C)CC(c3cc(Cl)cc(C#N)c3)=NO2)C1 (centres unmarked) | 80
COC1(C(=O)NC2C=CC(C(=O)OCCSC(=O)C(C)C)C2)CC(c2cc(F)cc(F)c2)=NO1 (centres unmarked) | 80

From here, focus on the item given below.
Bench note: what Herbicidal action against [%] POLCO did CSCCOC(=O)C1C=CC(NC(=O)C2(CO)CC(c3cc(F)cc(F)c3)=NO2)C1 (centres unmarked) show?
80

###

Tested on: Viola tricolor
method-summary: Post-emergence herbicidal action against VIOTR
Assay type: in vivo
recorded-conditions: 80 g a.i./ha
Recorded Herbicidal action against [%] VIOTR values for a group of compounds are listed next.
Provide the reading as a plain figure in %.

Illustrative cases are given below, each with its answer.
CSCCOC(=O)C1C=CC(NC(=O)C2(C(F)(F)F)CC(c3cc(F)cc(F)c3)=NO2)C1 (centres unmarked) | 80
CSCCOC(=O)C1C=CC(NC(=O)C2(C)CC(c3cc(C#N)cc(C#N)c3)=NO2)C1 (mixture of isomers) | 80
CSCCOC(=O)C1C=CC(NC(=O)C2(C(F)(F)F)CC(c3cccc(C#N)c3)=NO2)C1 (mixture of isomers) | 90
CSCCOC(=O)C1C=CC(NC(=O)C2(C)CC(c3cccc(F)c3)=NO2)C1 (centres unmarked) | 80
CSCCOC(=O)C1C=CC(NC(=O)C2(C(F)(F)F)CC(c3cc(F)cc(C#N)c3)=NO2)C1 (mixture of isomers) | 80
CSCCOC(=O)C1C=CC(NC(=O)C2(C3CC3)CC(c3cc(F)cc(F)c3)=NO2)C1 (centres unmarked) [Example I-30] | 80
C=CC1(C(=O)NC2C=CC(C(=O)OCCSC)C2)CC(c2cc(F)cc(F)c2)=NO1 (centres unmarked) | 80
CSCCOC(=O)C1C=CC(NC(=O)C2(CCl)CC(c3cc(F)cc(F)c3)=NO2)C1 (centres unmarked) | 80

Item under review: CSCCOC(=O)C1C=CC(NC(=O)C2(C3CC3)CC(c3cc(F)cc(F)c3)=NO2)C1 (centres unmarked) [Example I-28] . Reported Herbicidal action against [%] VIOTR?
80

Input C=CC1(C(=O)NC2CC=C(C(=O)OCCSC)C2)CC(c2cc(F)cc(F)c2)=NO1 (centres unmarked)
90

Entry to check: CSCCOC(=O)C1C=CC(NC(=O)C2(C)CC(c3cc(Cl)cc(C#N)c3)=NO2)C1 (mixture of isomers)
80
